This collection of values is drawn from patent EP4813993A1.

# System: incision pain model
# assay overview: Incision pain model in ICR mice, Von Frey test
# Format: in vivo
# details: 50 mg/kg group, baseline before administration, Mean + SEM, n = 10
# Protocol: Experimental Example 6: Pharmacodynamic effect study of compounds in incision pain model in ICR mice Experimental animals: ICR mice, male, 28-35 g. […] The Von Frey test was performed once before the surgery. […] The 50% PWT of the animals was measured separately before administration (baseline) and at 0.5 h, 2 h, and 4 h after administration, and a single dose was administered. […]
For each entry below, report its PWT 50% value (g) Post-surgery, Preadministration value.
# value in g; strip the unit string

input: Fill in the blank: the reported PWT 50% value (g) Post-surgery, Preadministration of COc1c([C@@H]2C[C@](C)(C(F)(F)F)SC2C(=O)Nc2ccnc([N+](=O)[O-])c2)ccc(F)c1F (stereo in doubt) is ____.
output: 0.27

input: PWT 50% value (g) Post-surgery, Preadministration lookup needed for `COc1c([C@@H]2C[C@](C)(C(F)(F)F)S[C@H]2C(=O)Nc2ccc3c(c2)S(=O)(=O)NC3)ccc(F)c1F` , thanks.
output: 0.24

input: Requested read-out: PWT 50% value (g) Post-surgery, Preadministration. Entry: COc1c(C2CC(C)(C(F)(F)F)SC2C(=O)Nc2ccnc(C(N)=O)c2)ccc(F)c1F (single isomer, unassigned)
output: 0.22

input: Reported PWT 50% value (g) Post-surgery, Preadministration for `COc1c([C@@H]2C[C@](C)(C(F)(F)F)S[C@H]2C(=O)Nc2ccc(NS(N)(=O)=O)c(F)c2)ccc(F)c1F` : what is it?
output: 0.29

input: Given `COc1c([C@@H]2C[C@](C)(C(F)(F)F)S[C@H]2C(=O)Nc2ccnc(N=[N+]=[N-])c2)ccc(F)c1F` , state its recorded PWT 50% value (g) Post-surgery, Preadministration.
output: 0.29

input: Entry `COc1c([C@@H]2C[C@](C)(C(F)(F)F)S[C@H]2C(=O)Nc2ccc(F)c(S(N)(=O)=O)c2)ccc(F)c1F` : reported PWT 50% value (g) Post-surgery, Preadministration = ?
output: 0.22
